Biological target: KRAS G12V/RAF1 (Homo sapiens, UniProt P01116, G12V)
Construct: KRAS (1-169) proteins were expressed in BL21 (DE3)-CodonPlus E. coli; His6-MBP (N, cleaved yes)
Sequence (P01116 with tags, fused parts or gaps isoform P01116-2 G12V): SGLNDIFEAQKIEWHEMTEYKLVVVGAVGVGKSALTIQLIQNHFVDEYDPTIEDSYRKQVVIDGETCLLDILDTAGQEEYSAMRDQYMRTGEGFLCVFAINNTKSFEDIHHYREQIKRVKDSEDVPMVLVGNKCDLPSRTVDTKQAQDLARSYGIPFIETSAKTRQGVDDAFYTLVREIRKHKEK
Assay: Protein-protein interaction (PPI) HTRF assay KRAS G12V/RAF1
Assay type: binding
Conditions: Table 3
Property Measured: IC50

{"columns": ["Compound", "Property Measured", "Data Value"],
 "data": [
  ["CN(CC1(C#N)CC1)c1nc(OC[C@@]23CCCN2C[C@H](F)C3)nc(N2CC3(CCc4sc(N)c(C#N)c43)C2)n1", "IC50", "1 to 10 µM"],
  ["N#Cc1c(N)sc2c1C1(CC2)CN(c2nc(OC[C@@]34CCCN3C[C@H](F)C4)nc(N3CCCC(C#N)CC3)n2)C1 (some centres unmarked)", "IC50", "1 to 10 µM"],
  ["C[C@]1(O)CN(c2nc(OC[C@@]34CCCN3C[C@H](F)C4)nc(N3CC4(CCc5sc(N)c(C#N)c54)C3)n2)CC[C@H]1O", "IC50", "1 to 10 µM"],
  ["CC(C#N)COc1nc(OC[C@@]23CCCN2C[C@H](F)C3)nc(N2CC3(CCc4sc(N)c(C#N)c43)C2)n1 (some centres unmarked)", "IC50", "10 to 100 µM"],
  ["N#Cc1c(N)sc2c1C1(CC2)CN(c2nc(OCC3(CN4CCOCC4)CC3)nc(N3C[C@H]4CC[C@@H](C3)N4)n2)C1", "IC50", "1 to 10 µM"],
  ["N#Cc1c(N)sc2c1C1(CC2)CCN(c2nc(OC[C@@]34CCCN3C[C@H](F)C4)nc(N3CCCC(C#N)CC3)n2)C1 (some centres unmarked)", "IC50", "10 to 100 µM"],
  ["N#Cc1c(N)sc2c1C1(CC2)CN(c2nc(OC[C@@]34CCCN3C[C@H](F)C4)nc(N3CC[C@@H](O)[C@@H](O)C3)n2)C1 (racemic)", "IC50", "10 to 100 µM"],
  ["N#Cc1c(N)sc2c1C1(CC2)CN(c2nc(OCC34CCCN3CC(F)C4)nc(N3CC4CCC(C3)N4)n2)C1 (centres unmarked)", "IC50", "0.1 to 1 µM"],
  ["CC1(C#N)CCCN(c2nc(OC[C@@]34CCCN3C[C@H](F)C4)nc(N3CC4(CCc5sc(N)c(C#N)c54)C3)n2)C1 (some centres unmarked)", "IC50", "1 to 10 µM"],
  ["N#Cc1c(N)sc2c1C1(CCC2)CN(c2nc(OCC3(CN4CCOCC4)CC3)nc(N3C[C@H]4CC[C@@H](C3)N4)n2)C1", "IC50", "10 to 100 µM"],
  ["N#Cc1c(N)sc2c1C1(CC2)CCN(c2nc(OCC3(CN4CCOCC4)CC3)nc(N3C[C@H]4CC[C@@H](C3)N4)n2)C1 (some centres unmarked)", "IC50", "10 to 100 µM"],
  ["CC1(CO)CCCN(c2nc(OC[C@@]34CCCN3C[C@H](F)C4)nc(N3CC4(CCc5sc(N)c(C#N)c54)C3)n2)C1 (some centres unmarked)", "IC50", "1 to 10 µM"],
  ["N#Cc1c(N)sc2c1C1(CC2)CN(c2nc(OC[C@@]34CCCN3C[C@H](F)C4)nc(N3CCC[C@@H](CO)C3)n2)C1", "IC50", "10 to 100 µM"],
  ["C[C@@]1(O)CCCN(c2nc(OC[C@@]34CCCN3C[C@H](F)C4)nc(N3CC4(CCc5sc(N)c(C#N)c54)C3)n2)C1", "IC50", "1 to 10 µM"],
  ["N#Cc1c(N)sc2c1C1(CC2)CN(c2nc(OCC3(C#N)CC3)nc(OC[C@@]34CCCN3C[C@H](F)C4)n2)C1", "IC50", "1 to 10 µM"],
  ["N#Cc1c(N)sc2c1C1(CC2)CN(c2nc(OCC3(CN4CCOCC4)CC3)nc(N3CCCC4(C3)NC(=O)NC4=O)n2)C1 (centres unmarked)", "IC50", "0.1 to 1 µM"],
  ["N#Cc1c(N)sc2c1C1(CC2)CN(c2nc(OC[C@@]34CCCN3C[C@H](F)C4)nc(N3CCCC(C#N)C3)n2)C1 (some centres unmarked)", "IC50", "1 to 10 µM"]
]}
